tested on: NCI-H522 lung; experiment: NCI tumour cell line growth inhibition, 48 h
Let's look at some compounds and their measured TGI.
quantity measured: TGI

compound	recorded result
CCOC(=O)/C(=C/c1cccc(C#N)c1)N(CC)CC	> 100 µM
O=C(O)C12CC3(C(=O)O)CC(C(=O)O)(CC(C(=O)O)(C1)C3=O)C2=O	> 100 µM
Cc1ccc(S(=O)(=O)NC(=O)NNc2ccc(F)cc2)cc1	> 100 µM

###

test system: NCI-H522 lung; assay: NCI tumour cell line growth inhibition, 48 h
Let's look at some molecules and their measured TGI.

molecule	target	qualifier sign	TGI [µM]
O=C(O)CC(NC(=O)/C(=C/c1ccccc1O)NC(=O)c1ccccc1)C(=O)O (centres undefined)	NCI-H522 lung	>	100
COC(=O)C1=C(C)NC(C)=C([N+](=O)[O-])C1c1cccc(N=O)c1 (centres undefined)	NCI-H522 lung	=	5.34
c1ccc(C2=Nn3c(CCCCCCCCc4nnc5n4N=C(c4ccccc4)CS5)nnc3SC2)cc1	NCI-H522 lung	>	100
COC(C(=O)[C@@H](O)[C@@H](C)O)[C@@H]1Cc2cc3cc(O[C@H]4C[C@@H](O[C@H]5C[C@@H](O)[C@H](O)C(C)O5)[C@H](O)C(C)O4)c(C)c(O)c3c(O)c2C(=O)[C@H]1O[C@H]1C[C@@H](O[C@H]2C[C@@H](O[C@H]3C[C@@H](O)[C@H](OC)C(C)O3)[C@@H](O)C(C)O2)[C@H](O)C(C)O1 (some centres undefined)	NCI-H522 lung	=	0.0569

Sourced from PubChem BioAssay (NCI)
